Conditions: male, human, in vivo, 200 mg, Tmax, T200
measured property: Tmax

Any idea what its Tmax is? The compound is C[C@]12CCC(=O)C=C1CC[C@@H]1[C@@H]2CC[C@]2(C)C(=O)CC[C@@H]12 [AED, androstenedione] 2 h

====

Test system: 5‐AR types 1 and 2
Test: Effect of dutasteride on in vitro testosterone metabolism in human hepatocytes
Format: cell-based
Conditions: human hepatocytes, 200 nM dutasteride with 50 μM testosterone, 60 minutes
measured property: change in metabolite formation/levels with dutasteride co‐treatment

# molecule, result
rows = [
    ("C[C@]12CCC(=O)C[C@@H]1CC[C@@H]1[C@@H]2CC[C@]2(C)[C@@H](O)CC[C@@H]12 [DHT, dihydrotestosterone]", "significant decreases"),
    ("C[C@]12CC[C@H]3[C@@H](C[C@@H](O)C4=CC(=O)CC[C@@]43C)[C@@H]1CC[C@@H]2O [6β‐OH‐T, 6β‐hydroxytestosterone]", "significant decreases"),
    ("C[C@]12CC[C@@H](O)C[C@@H]1CC[C@@H]1[C@@H]2CC[C@]2(C)C(=O)CC[C@@H]12", "significant decreases"),
]

====

Details: male, human, in vivo, AUC0–24h, T800+D, average, n = 7
measured property: AUC(0-t) (µM·h)
A number alone suffices; assume µM·h.

For the compound C[C@]12CCC(=O)C[C@@H]1CC[C@@H]1[C@@H]2CC[C@]2(C)[C@@H](O)CC[C@@H]12 [DHT, dihydrotestosterone] , what AUC(0-t) is on record? 0.0266
